- System: CDK4/cyclin D1 (Homo sapiens, UniProt P11802)
- Sequence (P11802 whole entry): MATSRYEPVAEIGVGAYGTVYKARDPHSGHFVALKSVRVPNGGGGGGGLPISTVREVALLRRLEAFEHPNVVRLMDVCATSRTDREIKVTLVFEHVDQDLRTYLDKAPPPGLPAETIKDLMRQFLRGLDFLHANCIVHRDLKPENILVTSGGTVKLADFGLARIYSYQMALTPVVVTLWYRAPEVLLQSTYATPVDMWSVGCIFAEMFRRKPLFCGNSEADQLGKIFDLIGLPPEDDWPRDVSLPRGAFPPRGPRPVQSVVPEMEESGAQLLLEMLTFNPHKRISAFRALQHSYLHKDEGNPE
- Sequence (P24385 whole entry partner): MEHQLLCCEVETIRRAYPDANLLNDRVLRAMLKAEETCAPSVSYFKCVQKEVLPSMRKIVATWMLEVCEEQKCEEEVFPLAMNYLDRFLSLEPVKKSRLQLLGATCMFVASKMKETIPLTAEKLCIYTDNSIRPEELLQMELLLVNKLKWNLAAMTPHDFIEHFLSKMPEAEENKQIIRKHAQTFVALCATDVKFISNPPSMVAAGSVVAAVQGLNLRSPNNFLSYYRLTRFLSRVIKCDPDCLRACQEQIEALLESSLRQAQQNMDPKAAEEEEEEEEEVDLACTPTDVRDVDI
- Protocol Text: CDK4/cyclin D1 Flashplate test in 96-well format
Structures can show the parent of a compound that is named as a salt.
// IC50 lookup, one value per entry
Provide only the numeric value, understood in nM.

Solved entries:
# Molecule, Unit Label, IC50
records = [
    ("O=C(Nc1nc2ccc(OS(=O)(=O)c3ccc(NC4CCCC4)cc3)cc2s1)C1CC1 [Example 8]", "nM", 899),
    ("CCCC(=O)Nc1nc2ccc(OS(=O)(=O)c3ccc(NCCN(C(C)C)C(C)C)cc3)cc2s1 [Example 79, hydrochloride]", "nM", 70),
    ("O=C(CC1CCNCC1)Nc1nc2ccc(OS(=O)(=O)c3ccc(NCCNCCO)cc3)cc2s1 [Example 19c]", "nM", 1220),
    ("O=C(Nc1nc2ccc(OS(=O)(=O)c3ccc(NCCCCn4cnc(-c5cccnc5)c4)cc3)cc2s1)C1CC1 [Example 13]", "nM", 6860),
    ("CC(C)N(CCNc1ccc(S(=O)(=O)Oc2ccc3nc(NC(=O)C4CCCC4)sc3c2)cc1)C(C)C [Example 45]", "nM", 341),
    ("CC(C)NCCNc1ccc(S(=O)(=O)Oc2ccc3nc(NC(=O)CCC4CCNCC4)sc3c2)cc1 [Example 24, hydrochloride]", "nM", 1670),
]

Query :: Lab note: need IC50 with CDK4/cyclin D1 (Homo sapiens, UniProt P11802) for entry NCCC(=O)Nc1nc2ccc(OS(=O)(=O)c3cccs3)cc2s1 [Example 33d, trifluoroacetic acid] , please look it up.
Result :: 8270

Query :: Lab note: need IC50 with CDK4/cyclin D1 (Homo sapiens, UniProt P11802) for entry O=C(CCC1CCNCC1)Nc1nc2ccc(OS(=O)(=O)c3ccc(NCCCn4ccnc4)cc3)cc2s1 [Example 25a, hydrochloride] , please look it up.
Result :: 1700

Query :: Lab note: need IC50 with CDK4/cyclin D1 (Homo sapiens, UniProt P11802) for entry COCC(=O)Nc1nc2ccc(OS(=O)(=O)c3ccc(NCCN(C(C)C)C(C)C)cc3)cc2s1 [Example 44] , please look it up.
Result :: 313

Query :: Lab note: need IC50 with CDK4/cyclin D1 (Homo sapiens, UniProt P11802) for entry CCNCCNc1ccc(S(=O)(=O)Oc2ccc3nc(NC(=O)CCCCCCCN)sc3c2)cc1 [Example 22b] , please look it up.
Result :: 783

Query :: Lab note: need IC50 with CDK4/cyclin D1 (Homo sapiens, UniProt P11802) for entry CC(C)N(CCNc1ccc(S(=O)(=O)Oc2ccc3nc(NC(=O)CCCCCN)sc3c2)cc1)C(C)C [Example 49, hydrochloride] , please look it up.
Result :: 328

Query :: Lab note: need IC50 with CDK4/cyclin D1 (Homo sapiens, UniProt P11802) for entry CC(C)NCCNc1ccc(S(=O)(=O)Oc2ccc3nc(NC(=O)C(C)C)sc3c2)cc1 [Example 75, trifluoroacetic acid] , please look it up.
Result :: 874

Query :: Lab note: need IC50 with CDK4/cyclin D1 (Homo sapiens, UniProt P11802) for entry CC(C)N(CCNc1ccc(S(=O)(=O)Oc2ccc3nc(NC(=O)CCc4cccnc4)sc3c2)cc1)C(C)C [Example 62, hydrochloride] , please look it up.
Result :: 236

Query :: Lab note: need IC50 with CDK4/cyclin D1 (Homo sapiens, UniProt P11802) for entry CC(C)CNc1ccc(S(=O)(=O)Oc2ccc3nc(NC(=O)CCCCCCCN)sc3c2)cc1 [Example 29b] , please look it up.
Result :: 368

Query :: Lab note: need IC50 with CDK4/cyclin D1 (Homo sapiens, UniProt P11802) for entry CC(C)N(CCNc1ccc(S(=O)(=O)Oc2ccc3nc(NC(=O)CCCCCCCN)sc3c2)cc1)C(C)C [Example 40] , please look it up.
Result :: 253

Query :: Lab note: need IC50 with CDK4/cyclin D1 (Homo sapiens, UniProt P11802) for entry CCNCCNc1ccc(S(=O)(=O)Oc2ccc3nc(NC(=O)CCC4CCNCC4)sc3c2)cc1 [Example 25b, hydrochloride] , please look it up.
Result :: 4080

Query :: Lab note: need IC50 with CDK4/cyclin D1 (Homo sapiens, UniProt P11802) for entry CCNCCNc1ccc(S(=O)(=O)Oc2ccc3nc(NC(=O)CC4CCNCC4)sc3c2)cc1 [Example 19b, hydrochloride] , please look it up.
Result :: 732

Query :: Lab note: need IC50 with CDK4/cyclin D1 (Homo sapiens, UniProt P11802) for entry CC(=O)Nc1nc2ccc(OS(=O)(=O)c3ccc(NCCNC(C)C)cc3)cc2s1 [Example 65] , please look it up.
Result :: 170

----------
- System: CDK4/cyclin D1 (Homo sapiens)
- Protocol Text: CDK4/cyclin D1 Flashplate test in 96-well format
Counter-ions that a name gives are not always drawn.
// IC50 lookup, one value per entry
Provide only the numeric value, understood in nM.

Solved entries:
# Compound, IC50, nM
measured = [
    ("CC(C)(O)CNc1ccc(S(=O)(=O)Oc2ccc3nc(NC(=O)C4CCNCC4)sc3c2)cc1", 3970),
    ("CCCC(=O)Nc1nc2ccc(OS(=O)(=O)c3ccc(NCCNC(C)C)cc3)cc2s1", 246),
    ("O=C(CCC1CCNCC1)Nc1nc2ccc(OS(=O)(=O)c3ccc(NCCNCCO)cc3)cc2s1 [Example 25c, hydrochloride]", 3890),
    ("CC(C)C(=O)Nc1nc2ccc(OS(=O)(=O)c3ccc(NCCN(C(C)C)C(C)C)cc3)cc2s1 [Example 55, hydrochloride]", 221),
]

Query :: Record request: IC50 value, item CC(C)CNc1ccc(S(=O)(=O)Oc2ccc3nc(NC(=O)CCC4CCNCC4)sc3c2)cc1 [Example 29a, hydrochloride]
Result :: 573

Query :: Record request: IC50 value, item O=C(Nc1nc2ccc(OS(=O)(=O)c3cccs3)cc2s1)C1CC1 [Example 33h]
Result :: 358

Query :: Record request: IC50 value, item CC(C)(CNc1ccc(S(=O)(=O)Oc2ccc3nc(NC(=O)C4CC4)sc3c2)cc1)OP(=O)(O)O
Result :: 3320

----------
// pIC50 lookup, one value per entry
- System: CDK2/cyclin E (Homo sapiens, UniProt P24941)
- Protocol Text: CDK2/cyclin E Flashplate test in 96-well format
- Type: biochemical
- Applied Conditions: read-out: CDK2 IC50
Counter-ions that a name gives are not always drawn.
Note on units: pIC50 is unitless, being -log10 of a concentration expressed in mol/L.

Query :: Record request: pIC50 value, item O=C(Nc1nc2ccc(OS(=O)(=O)c3ccc(F)cc3)cc2s1)C1CC1 [Example 7]
Result :: 6.91

Query :: Record request: pIC50 value, item CCCC(=O)Nc1nc2ccc(OS(=O)(=O)c3ccc(NCC(C)(C)O)cc3)cc2s1 [Example 80, hydrochloride]
Result :: 7.24

Query :: Record request: pIC50 value, item CC(C)NCCNc1ccc(S(=O)(=O)Oc2ccc3nc(NC(=O)C4CCCC4)sc3c2)cc1 [Example 69]
Result :: 6.52

----------
- System: CDK4/cyclin D1 (Homo sapiens)
- Protocol Text: CDK4/cyclin D1 Flashplate test in 96-well format
Counter-ions that a name gives are not always drawn.
// IC50 lookup, one value per entry
Provide only the numeric value, understood in nM.

Solved entries:
# Compound, IC50, nM
records = [
    ("CCCC(=O)Nc1nc2ccc(OS(=O)(=O)c3ccc(NCC(C)(C)O)cc3)cc2s1 [Example 80, hydrochloride]", 674),
    ("CCC(=O)Nc1nc2ccc(OS(=O)(=O)c3ccc(NCCN(C(C)C)C(C)C)cc3)cc2s1 [Example 57, hydrochloride]", 125),
    ("CC(C)(O)CNc1ccc(S(=O)(=O)Oc2ccc3nc(NC(=O)CCCCCCCN)sc3c2)cc1 [Example 22d]", 708),
    ("CC(=O)Nc1nc2ccc(OS(=O)(=O)c3ccc(NCCN(C(C)C)C(C)C)cc3)cc2s1 [Example 43]", 119),
    ("CC(C)NCCNc1ccc(S(=O)(=O)Oc2ccc3nc(NC(=O)C4CCCC4)sc3c2)cc1 [Example 69]", 914),
    ("O=C(Nc1nc2ccc(OS(=O)(=O)c3ccc(NCCCn4ccnc4)cc3)cc2s1)C1CC1 [Example 9]", 931),
    ("O=C(CC1CCNCC1)Nc1nc2ccc(OS(=O)(=O)c3ccc(NCCCn4ccnc4)cc3)cc2s1 [Example 19a, hydrochloride]", 471),
    ("CC(C)CNc1ccc(S(=O)(=O)Oc2ccc3nc(NC(=O)CC4CCNCC4)sc3c2)cc1 [Example 28, hydrochloride]", 399),
    ("CC(C)(O)CNc1ccc(S(=O)(=O)Oc2ccc3nc(NC(=O)CCC4CCNCC4)sc3c2)cc1 [Example 84, hydrochloride]", 683),
    ("NCCCCCCCC(=O)Nc1nc2ccc(OS(=O)(=O)c3ccc(NCCNCCO)cc3)cc2s1 [Example 22c]", 1570),
]

Query :: Record request: IC50 value, item CC(C)N(CCNc1ccc(S(=O)(=O)Oc2ccc3nc(NC(=O)CCCCCCN)sc3c2)cc1)C(C)C [Example 52, hydrochloride]
Result :: 189

Query :: Record request: IC50 value, item CC(C)NCCNc1ccc(S(=O)(=O)Oc2ccc3nc(NC(=O)C4CCC4)sc3c2)cc1 [Example 77, trifluoroacetic acid]
Result :: 1010
